For each entry below, report its PBM binding z-score value.
# System: PPARg DBDmut:RXRa IVT, anti-PPARg (DBD mutation: PPARg1 K132A/R137A, NR concentration 270 nM, RXRa partner concentration 90 nM)
# Method Summary: PBM binding z-score (relative to random genomic background probes); higher = stronger binding; sequences stand for … in GC…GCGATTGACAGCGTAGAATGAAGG
Give only the figure.

For record `CAAACCAGGTCACAGAGGTCAAAGTCCGTGCGTA` the listed PBM binding z-score is 3.56

# PBM binding z-score (sequence: `CGTCCAAGGTCAAAGGTCATTGAAGAGATGACGG` ) is 2.57

For `CCTTAGGGGTCAAGGTTATAGCACGGGTGGTACG` the sequence record lists PBM binding z-score as 1.1

# PBM binding z-score of `TAGCCTAGGTCGTTCAGGGGCCAGTATAGAAAGC` = -0.279

Value of PBM binding z-score reported for the sequence `TTACCAAGGTCAAGGTCGTTGATCCCTCTGTAGA` is 1.64

Form field PBM binding z-score, entry `CGAACTAGGTCGAGGACAGTGAATCTCCGCACGC` : 0.082

The recorded PBM binding z-score for `CAAAATAGGTCACCGGAAGGTCAAAGTCCGCATG` is 1.87

Input `CGAACTACGTCATCCAGGACAGTGAATACATTGA` . Output PBM binding z-score: 0.664

// field: PBM binding z-score; key: `ATATGTAGGTTATCGGGTCATACAGTTTGCGCAT` ; value = 3.33

Record `GATACGGGGTCAAGGCCAGAGTACGCGTATTGAT` . Reported PBM binding z-score: 2.81

sequence `TATTCAGGGTCAAAGGCCAGAGTACGAATGTCGA` , PBM binding z-score observed: 4.08

The recorded PBM binding z-score for `CCGAGTTGGTCAAGGTCACACACGCTATAGGTAC` is 0.702
